target: GABA-A receptor; alpha-3/beta-3/gamma-2 (Homo sapiens, UniProt P18507+P28472+P34903); test: Displacement of [3H]-Ro 15-1788 from Homo sapiens (human) recombinant GABAA alpha3beta3gamma2 receptor expressed in Ltk- cells after 1 hr by liquid scintillation counting
Sequence (P18507 whole entry): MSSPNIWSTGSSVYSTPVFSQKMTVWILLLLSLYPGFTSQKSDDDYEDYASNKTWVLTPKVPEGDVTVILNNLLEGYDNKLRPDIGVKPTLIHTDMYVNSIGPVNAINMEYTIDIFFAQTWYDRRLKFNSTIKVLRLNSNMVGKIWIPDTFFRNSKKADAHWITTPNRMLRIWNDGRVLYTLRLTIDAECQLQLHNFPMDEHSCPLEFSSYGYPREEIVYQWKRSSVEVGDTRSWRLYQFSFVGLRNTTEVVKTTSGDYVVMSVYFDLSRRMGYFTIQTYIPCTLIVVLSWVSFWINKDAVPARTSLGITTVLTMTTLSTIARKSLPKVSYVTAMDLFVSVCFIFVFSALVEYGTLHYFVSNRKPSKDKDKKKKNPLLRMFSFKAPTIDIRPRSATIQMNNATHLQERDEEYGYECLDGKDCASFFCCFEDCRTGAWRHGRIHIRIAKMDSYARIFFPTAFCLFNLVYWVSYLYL
Sequence (P28472 whole entry): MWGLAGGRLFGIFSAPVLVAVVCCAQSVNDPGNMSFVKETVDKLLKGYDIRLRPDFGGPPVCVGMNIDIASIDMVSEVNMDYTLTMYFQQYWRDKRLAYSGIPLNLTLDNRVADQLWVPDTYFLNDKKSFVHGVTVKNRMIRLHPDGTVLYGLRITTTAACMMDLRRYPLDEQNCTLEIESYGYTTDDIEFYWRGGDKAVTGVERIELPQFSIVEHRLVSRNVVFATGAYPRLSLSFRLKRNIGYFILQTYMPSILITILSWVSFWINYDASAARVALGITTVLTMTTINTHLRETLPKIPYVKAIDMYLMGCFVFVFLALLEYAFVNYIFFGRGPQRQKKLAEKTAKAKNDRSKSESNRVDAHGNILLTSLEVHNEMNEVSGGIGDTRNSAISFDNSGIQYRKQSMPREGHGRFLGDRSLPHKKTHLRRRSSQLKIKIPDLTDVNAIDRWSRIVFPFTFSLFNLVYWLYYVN
Sequence (P34903 whole entry): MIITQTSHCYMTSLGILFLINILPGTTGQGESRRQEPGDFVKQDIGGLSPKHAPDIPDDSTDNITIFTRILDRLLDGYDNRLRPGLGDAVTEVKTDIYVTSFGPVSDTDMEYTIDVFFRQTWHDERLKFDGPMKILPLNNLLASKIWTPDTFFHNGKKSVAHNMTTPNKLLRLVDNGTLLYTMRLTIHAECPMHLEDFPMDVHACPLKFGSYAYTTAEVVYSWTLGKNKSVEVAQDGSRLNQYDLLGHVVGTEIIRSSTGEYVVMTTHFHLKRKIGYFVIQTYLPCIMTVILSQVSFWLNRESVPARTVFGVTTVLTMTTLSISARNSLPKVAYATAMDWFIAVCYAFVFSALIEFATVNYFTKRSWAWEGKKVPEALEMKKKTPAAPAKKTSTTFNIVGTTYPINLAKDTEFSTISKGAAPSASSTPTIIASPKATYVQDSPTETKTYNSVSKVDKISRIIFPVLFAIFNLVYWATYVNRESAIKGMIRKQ
Rule: Ki below 200 nM gives Fulfilled, anything at or above gives Not fulfilled.

INSERT INTO assay_data (smiles_string, label) VALUES
  ('O=C(OCC(F)(F)F)c1ncn2c1[C@@H]1CCCN1C(=O)c1cc(-c3ccccc3)ccc1-2', 'Not fulfilled'),
  ('O=C(OCC(F)(F)F)c1ncn2c1[C@@H]1CCCN1C(=O)c1cc(Br)ccc1-2', 'Not fulfilled'),
  ('O=C(OCC(F)(F)F)c1ncn2c1[C@@H]1CCCN1C(=O)c1ccccc1-2', 'Fulfilled'),
  ('C[Si](C)(C)C#Cc1ccc2c(c1)C(=O)N1CCC[C@H]1c1c(C(=O)OCC(F)(F)F)ncn1-2', 'Not fulfilled'),
  ('C#Cc1ccc2c(c1)C(=O)N1CCC[C@H]1c1c(C(=O)OCC(F)(F)F)ncn1-2', 'Fulfilled'),
  ('C#Cc1ccc2c(c1)C(=O)N1CCC[C@H]1c1c(C(=O)OC(C)(C)C)ncn1-2', 'Not fulfilled'),
  ('CC(C)(C)OC(=O)c1ncn2c1[C@@H]1CCCN1C(=O)c1cc(C#C[Si](C)(C)C)ccc1-2', 'Not fulfilled'),
  ('CC(C)(C)OC(=O)c1ncn2c1[C@@H]1CCCN1C(=O)c1cc(-c3cccs3)ccc1-2', 'Fulfilled'),
  ('CC(C)(C)OC(=O)c1ncn2c1[C@@H]1CCCN1C(=O)c1cc(-c3ccco3)ccc1-2', 'Fulfilled');
